The reported measurements were obtained from patent US12030891B2.

assay: Luminescent Vibrio fischeri ecotoxicity assay (ISO11348); format: cell-based; details: luminescent Vibrio fischeri bacteria (NRRL-B-11177), contact time of 30 min, read-out: LC50 (inhibition of light radiation emitted)
Each entry below lists one item and its recorded 50% inhibition of luminescence concentration (EC50) at 30 min value.

// field: 50% inhibition of luminescence concentration (EC50) at 30 min; key: O=c1c2ccccc2oc2c(O)c(O)ccc12 [3,4dOHx, 3,4-dihydroxy-9H-xanthen-9-one] ; value = > 750 µg/mL

Next:
// field: 50% inhibition of luminescence concentration (EC50) at 30 min; key: CC1(C)CCc2cc3c(=O)c4ccccc4oc3c(O)c2O1 [XP13] ; value = > 237 µg/mL

// field: 50% inhibition of luminescence concentration (EC50) at 30 min; key: COc1cc(CN2CCc3c(N)cccc3C2)c2c(=O)c3ccccc3oc2c1OC [XA20] ; value = > 300 µg/mL
